Assay: Half life in Sprague-Dawley rat at 10 mg/kg, po
Type: ADME, organism-based
Details: in vivo
property label: half-life (h)
Number only, in h; omit the unit.

Dear colleague, I am looking for the recorded half-life of the following compound: CC[C@H](Nc1nc(N)nc(N)c1C#N)c1nc2cccc(C#CCCCC(=O)N3CCOCC3)c2c(=O)n1-c1ccccc1 1.46

* * *

Target: Phosphatidylinositol 4,5-bisphosphate 3-kinase catalytic subunit delta isoform (Homo sapiens, UniProt O00329)
Sequence (O00329 whole entry, canonical isoform): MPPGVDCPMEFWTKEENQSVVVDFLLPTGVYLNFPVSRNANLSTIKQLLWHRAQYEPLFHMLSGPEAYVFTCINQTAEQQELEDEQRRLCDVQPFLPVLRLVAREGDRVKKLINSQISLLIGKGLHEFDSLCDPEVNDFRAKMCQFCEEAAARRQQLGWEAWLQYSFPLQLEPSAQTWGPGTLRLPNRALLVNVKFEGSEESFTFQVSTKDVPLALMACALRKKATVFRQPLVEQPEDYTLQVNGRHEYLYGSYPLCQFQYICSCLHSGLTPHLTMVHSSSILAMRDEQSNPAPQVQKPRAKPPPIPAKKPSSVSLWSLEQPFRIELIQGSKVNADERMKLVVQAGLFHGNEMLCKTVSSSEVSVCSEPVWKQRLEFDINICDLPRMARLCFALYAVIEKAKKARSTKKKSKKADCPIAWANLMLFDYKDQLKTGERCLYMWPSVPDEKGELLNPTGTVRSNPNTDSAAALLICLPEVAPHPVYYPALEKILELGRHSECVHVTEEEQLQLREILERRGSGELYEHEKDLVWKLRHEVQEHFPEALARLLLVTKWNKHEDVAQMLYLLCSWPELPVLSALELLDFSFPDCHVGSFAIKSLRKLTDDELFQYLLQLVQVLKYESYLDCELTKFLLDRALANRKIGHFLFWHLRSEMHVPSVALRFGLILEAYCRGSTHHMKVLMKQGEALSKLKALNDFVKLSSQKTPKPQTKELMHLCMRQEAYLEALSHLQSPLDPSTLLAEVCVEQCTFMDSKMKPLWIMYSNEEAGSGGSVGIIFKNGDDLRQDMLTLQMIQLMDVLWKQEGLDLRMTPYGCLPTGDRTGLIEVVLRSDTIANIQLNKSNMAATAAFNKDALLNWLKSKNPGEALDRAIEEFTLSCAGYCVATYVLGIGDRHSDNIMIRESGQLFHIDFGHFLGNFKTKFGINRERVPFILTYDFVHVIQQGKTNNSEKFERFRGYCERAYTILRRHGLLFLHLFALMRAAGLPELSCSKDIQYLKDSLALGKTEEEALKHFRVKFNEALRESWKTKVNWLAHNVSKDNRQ
Assay: Inhibition of PI3Kdelta (unknown origin) using PIP2 as substrate measured after 30 mins by HTRF assay
property label: pIC50
Here pIC50 is given on a logarithmic scale as minus log10 of the concentration in mol/L.

Dear colleague, I am looking for the recorded pIC50 of the following molecule: CC[C@H](Nc1nc(N)nc(N)c1C#N)c1nc2cccc(C#CCCCC(=O)N3CCOCC3)c2c(=O)n1-c1ccccc1 8.42

Dear colleague, I am looking for the recorded pIC50 of the following molecule: CC(C)(C)N1CCN(C(=O)C#Cc2cccc3nc([C@@H]4CCCN4c4ncnc(N)c4C#N)n(-c4ccccc4)c(=O)c23)CC1 7.01

Dear colleague, I am looking for the recorded pIC50 of the following molecule: N#Cc1c(N)ncnc1N1CCC[C@H]1c1nc2cccc(C#Cc3cccs3)c2c(=O)n1-c1ccccc1 7.38

Dear colleague, I am looking for the recorded pIC50 of the following molecule: Cc1nc(N)nc(N2CC[C@H]2c2nc3cccc(C#CCCCC(=O)N4CCCC4)c3c(=O)n2-c2ccccc2)c1C#N 7.71

Dear colleague, I am looking for the recorded pIC50 of the following molecule: CC[C@H](Nc1ncnc(N)c1C#N)c1nc2cccc(C#CCCCC(=O)N3CCCC3)c2c(=O)n1-c1ccccc1 6.95

Dear colleague, I am looking for the recorded pIC50 of the following molecule: N#Cc1c(N)ncnc1N1CCC[C@H]1c1nc2cccc(C#CCCCC(=O)N3CCOCC3)c2c(=O)n1-c1ccccc1 7.86

Dear colleague, I am looking for the recorded pIC50 of the following molecule: Cc1nc(N)nc(N2CC[C@H]2c2nc3cccc(C#CCCCC(=O)N4CCOCC4)c3c(=O)n2-c2ccccc2)c1C#N 7.77

Dear colleague, I am looking for the recorded pIC50 of the following molecule: N#Cc1c(N)ncnc1N1CCC[C@H]1c1nc2cccc(C#CCN3CCC(C4CC(F)(F)C4)CC3)c2c(=O)n1-c1ccccc1 6.85
